Value source: ChEMBL document CHEMBL1135079

Biological target: C-C chemokine receptor type 5 (Homo sapiens)
Sequence (P51681 whole entry): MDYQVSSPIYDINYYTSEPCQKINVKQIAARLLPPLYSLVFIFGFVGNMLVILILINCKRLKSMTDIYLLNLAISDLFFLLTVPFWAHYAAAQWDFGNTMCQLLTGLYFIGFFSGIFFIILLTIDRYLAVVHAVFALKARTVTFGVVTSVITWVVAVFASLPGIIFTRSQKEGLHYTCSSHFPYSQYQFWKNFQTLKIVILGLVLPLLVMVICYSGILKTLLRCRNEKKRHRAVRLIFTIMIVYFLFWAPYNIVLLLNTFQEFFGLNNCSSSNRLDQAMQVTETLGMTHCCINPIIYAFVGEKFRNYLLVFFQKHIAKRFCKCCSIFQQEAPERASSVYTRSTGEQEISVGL
Experiment: Ability to displace [125I]-labeled MIP-1alpha from the C-C chemokine receptor type 5 expressed on CHO cell membranes
pIC50 by entry:
// field semantics: pIC50 = negative decimal log of concentration (mol/L)

C=CCN(C(=O)OCc1ccc([N+](=O)[O-])cc1)C1CCN(C[C@H]2CN3O[C@H](c4ccccc4)C[C@H]3[C@@H]2c2ccccc2)CC1; 8.60

Q) Item `c1ccc(CCCC2CCN(C[C@H]3CN4O[C@H](c5ccccc5)C[C@H]4[C@@H]3c3ccccc3)CC2)cc1` has what recorded pIC50?
A) 8.30

Q) Item `c1ccc(CCCC2CCN(C[C@H]3CN4OC5(CCCCC5)C[C@H]4[C@@H]3c3ccccc3)CC2)cc1` has what recorded pIC50?
A) 8.10
